RECORDED METRIC: Ki (µM)
Numbers only here, please. The scale is µM.

Nc1ncnc2c1ncn2C1O[C@](F)(CO)[C@@H](O)[C@H]1O (stereo partly specified) on Adenosylhomocysteinase (Rattus norvegicus, UniProt P10760) gives Ki = 166
